Consider molecules characterized by their log10(IC50) with Aldo-keto reductase family 1 member B1 (Bos taurus).
Quantity name: log10(IC50) (log10 of the value in µM)

# Compound, log10(IC50)
data = [
    ("O=C1c2ccccc2C(=O)c2cc(S(=O)(=O)N3C(=O)NC(=O)C34c3ccccc3-c3ccccc34)ccc21", 1.01),
    ("O=C1NC2(C(=O)N1S(=O)(=O)c1ccc([N+](=O)[O-])cc1)c1ccccc1-c1ccccc12", 0.26),
    ("O=C1NC(=O)C2(c3ccccc3-c3ccccc32)N1S(=O)(=O)c1ccc([N+](=O)[O-])cc1", 0.90),
    ("COc1ccc(S(=O)(=O)N2C(=O)NC3(C2=O)c2ccccc2-c2ccccc23)cc1", 0.01),
    ("O=C1NC(=O)C2(c3ccccc3-c3ccccc32)N1S(=O)(=O)c1ccc(Br)cc1", 0.59),
]

---

# Species on record: Bos taurus
# Procedure text: Selectivity index, ratio of IC50 for ALR1 in calf kidney to IC50 for ALR2 in calf lenses
# Assay type: tissue-based
# Measurement conditions: Lens of camera-type eye
Decide using Ratio IC50 alone. Strictly below 3: MET. Equal to or above 3: NOT MET.

# Compound, Class name
data = [
    ("O=C1NC2(C(=O)N1S(=O)(=O)c1ccc([N+](=O)[O-])cc1)c1ccccc1-c1ccccc12", "MET"),
    ("O=C1c2ccccc2C(=O)c2cc(S(=O)(=O)N3C(=O)NC4(C3=O)c3ccccc3-c3ccccc34)ccc21", "MET"),
    ("O=C1NC(=O)C2(c3ccccc3-c3ccccc32)N1S(=O)(=O)c1ccc2ccccc2c1", "MET"),
    ("COc1ccc(S(=O)(=O)N2C(=O)NC3(C2=O)c2ccccc2-c2ccccc23)cc1", "NOT MET"),
    ("Cc1ccc(S(=O)(=O)N2C(=O)NC(=O)C23c2ccccc2-c2ccccc23)cc1", "NOT MET"),
    ("O=C1NC(=O)C2(c3ccccc3-c3ccccc32)N1S(=O)(=O)c1ccc(Cl)cc1", "NOT MET"),
]

---

# Organism: Bos taurus
# Procedure text: Selectivity index, ratio of IC50 for ALR1 in calf kidney to IC50 for ALR2 in calf lenses
# Assay type: tissue-based
# Measurement conditions: Lens of camera-type eye

# Compound, Ratio IC50
rows = [
    ("O=C1NC2(C(=O)N1S(=O)(=O)c1ccc(Br)cc1)c1ccccc1-c1ccccc12", 9.68),
    ("COc1ccc(S(=O)(=O)N2C(=O)NC(=O)C23c2ccccc2-c2ccccc23)cc1", 2.39),
    ("O=C1c2ccccc2C(=O)c2cc(S(=O)(=O)N3C(=O)NC(=O)C34c3ccccc3-c3ccccc34)ccc21", 1.97),
    ("O=C1NC2(C(=O)N1S(=O)(=O)c1ccc(Cl)cc1)c1ccccc1-c1ccccc12", 53.8),
    ("Cc1ccc(S(=O)(=O)N2C(=O)NC3(C2=O)c2ccccc2-c2ccccc23)cc1", 1.81),
]

---

# Tested on: Mus musculus
# Procedure text: In-vivo hypoglycemic activity in alloxan-pretreated diabetic BALB/c mouse assessed as decrease in blood glucose level after 8 hrs by glucometer analysis
# Type: functional

# Compound, Scale unit, inhibition (INH)
data = [
    ("Cc1ccc(S(=O)(=O)N2C(=O)NC(=O)C23c2ccccc2-c2ccccc23)cc1", "%", 61.67),
    ("O=C1NC2(C(=O)N1S(=O)(=O)c1ccc(Br)cc1)c1ccccc1-c1ccccc12", "%", 73.72),
    ("O=C1NC(=O)C2(c3ccccc3-c3ccccc32)N1S(=O)(=O)c1ccc(Br)cc1", "%", 70.55),
    ("O=C1NC2(C(=O)N1S(=O)(=O)c1ccc([N+](=O)[O-])cc1)c1ccccc1-c1ccccc12", "%", 55.25),
    ("O=C1NC2(C(=O)N1S(=O)(=O)c1ccc(Cl)cc1)c1ccccc1-c1ccccc12", "%", 72.24),
]

---

# System: aldehyde reductase (ALR1), Bos taurus
# Procedure text: Inhibition of ALR1 in calf kidney using sodium D-glucoronate as substrate at 0.6 mM treated with compound for 10 mins prior to substrate addition by UV spectrophotometer analysis
// reported inhibition per item
Quantity name: inhibition

# Compound, Result
data = [
    ("O=C1NC2(C(=O)N1S(=O)(=O)c1ccc(Br)cc1)c1ccccc1-c1ccccc12", "52%"),
    ("O=C1NC2(C(=O)N1S(=O)(=O)c1ccc3ccccc3c1)c1ccccc1-c1ccccc12", "47.9%"),
    ("O=C1c2ccccc2C(=O)c2cc(S(=O)(=O)N3C(=O)NC4(C3=O)c3ccccc3-c3ccccc34)ccc21", "44.9%"),
    ("O=C1NC2(C(=O)N1S(=O)(=O)c1ccc(Cl)cc1)c1ccccc1-c1ccccc12", "47.9%"),
]

---

# Procedure text: Retardation factor of the compound using petroleum ether/ethylacetate (6:4) as solvent system by TLC
# Format: physicochemical
// reported Rf per item

# Compound, Rf
data = [
    ("O=C1NC(=O)C2(c3ccccc3-c3ccccc32)N1S(=O)(=O)c1ccc(Br)cc1", 0.33),
    ("Cc1ccc(S(=O)(=O)N2C(=O)NC(=O)C23c2ccccc2-c2ccccc23)cc1", 0.25),
    ("O=C1NC2(C(=O)N1S(=O)(=O)c1ccc(Cl)cc1)c1ccccc1-c1ccccc12", 0.31),
    ("O=C1NC2(C(=O)N1S(=O)(=O)c1ccc3ccccc3c1)c1ccccc1-c1ccccc12", 0.44),
    ("COc1ccc(S(=O)(=O)N2C(=O)NC(=O)C23c2ccccc2-c2ccccc23)cc1", 0.43),
]

---

// reported inhibition (INH) per item
# System: Mus musculus
# Procedure text: In-vivo hypoglycemic activity in alloxan-pretreated diabetic BALB/c mouse assessed as decrease in blood glucose level after 8 hrs by glucometer analysis
# Type: functional
Quantity name: inhibition (INH) (%)

# Compound, Quantity name, Scale unit, Result
data = [
    ("Cc1ccc(S(=O)(=O)N2C(=O)NC3(C2=O)c2ccccc2-c2ccccc23)cc1", "inhibition (INH)", "%", 48.28),
    ("O=C1NC2(C(=O)N1S(=O)(=O)c1ccc3ccccc3c1)c1ccccc1-c1ccccc12", "inhibition (INH)", "%", 66.44),
    ("O=C1NC(=O)C2(c3ccccc3-c3ccccc32)N1S(=O)(=O)c1ccc2ccccc2c1", "inhibition (INH)", "%", 64.13),
    ("COc1ccc(S(=O)(=O)N2C(=O)NC(=O)C23c2ccccc2-c2ccccc23)cc1", "inhibition (INH)", "%", 66.38),
    ("O=C1NC(=O)C2(c3ccccc3-c3ccccc32)N1S(=O)(=O)c1ccc([N+](=O)[O-])cc1", "inhibition (INH)", "%", 62.86),
]

---

// reported Rf per item
# Procedure text: Retardation factor of the compound using petroleum ether/ethylacetate (6:4) as solvent system by TLC
# Format: physicochemical
Quantity name: Rf

# Compound, Quantity name, Result
records = [
    ("O=C1NC2(C(=O)N1S(=O)(=O)c1ccc(Br)cc1)c1ccccc1-c1ccccc12", "Rf", 0.31),
    ("COc1ccc(S(=O)(=O)N2C(=O)NC3(C2=O)c2ccccc2-c2ccccc23)cc1", "Rf", 0.42),
    ("O=C1c2ccccc2C(=O)c2cc(S(=O)(=O)N3C(=O)NC4(C3=O)c3ccccc3-c3ccccc34)ccc21", "Rf", 0.47),
    ("O=C1NC2(C(=O)N1S(=O)(=O)c1ccc([N+](=O)[O-])cc1)c1ccccc1-c1ccccc12", "Rf", 0.35),
    ("O=C1c2ccccc2C(=O)c2cc(S(=O)(=O)N3C(=O)NC(=O)C34c3ccccc3-c3ccccc34)ccc21", "Rf", 0.44),
    ("O=C1NC(=O)C2(c3ccccc3-c3ccccc32)N1S(=O)(=O)c1ccc2ccccc2c1", "Rf", 0.41),
    ("Cc1ccc(S(=O)(=O)N2C(=O)NC3(C2=O)c2ccccc2-c2ccccc23)cc1", "Rf", 0.27),
    ("O=C1NC(=O)C2(c3ccccc3-c3ccccc32)N1S(=O)(=O)c1ccc(Cl)cc1", "Rf", 0.2),
    ("O=C1NC(=O)C2(c3ccccc3-c3ccccc32)N1S(=O)(=O)c1ccc([N+](=O)[O-])cc1", "Rf", 0.31),
]

---

# Test system: Mus musculus
# Procedure text: In-vivo hypoglycemic activity in alloxan-pretreated diabetic BALB/c mouse assessed as blood glucose level after 4 hrs by glucometer analysis (reference value: 239.0 to 444.4 mg/dl)
# Assay type: functional
Decide using Activity alone. Strictly below 200 mg/dL: rule met. Equal to or above 200 mg/dL: rule not met.

# Compound, Class name
records = [
    ("O=C1NC2(C(=O)N1S(=O)(=O)c1ccc(Br)cc1)c1ccccc1-c1ccccc12", "rule not met"),
    ("O=C1NC2(C(=O)N1S(=O)(=O)c1ccc(Cl)cc1)c1ccccc1-c1ccccc12", "rule met"),
    ("O=C1NC(=O)C2(c3ccccc3-c3ccccc32)N1S(=O)(=O)c1ccc(Cl)cc1", "rule not met"),
    ("Cc1ccc(S(=O)(=O)N2C(=O)NC(=O)C23c2ccccc2-c2ccccc23)cc1", "rule not met"),
    ("O=C1c2ccccc2C(=O)c2cc(S(=O)(=O)N3C(=O)NC(=O)C34c3ccccc3-c3ccccc34)ccc21", "rule not met"),
    ("COc1ccc(S(=O)(=O)N2C(=O)NC3(C2=O)c2ccccc2-c2ccccc23)cc1", "rule not met"),
    ("O=C1c2ccccc2C(=O)c2cc(S(=O)(=O)N3C(=O)NC4(C3=O)c3ccccc3-c3ccccc34)ccc21", "rule not met"),
    ("Cc1ccc(S(=O)(=O)N2C(=O)NC3(C2=O)c2ccccc2-c2ccccc23)cc1", "rule met"),
    ("O=C1NC2(C(=O)N1S(=O)(=O)c1ccc([N+](=O)[O-])cc1)c1ccccc1-c1ccccc12", "rule met"),
    ("O=C1NC(=O)C2(c3ccccc3-c3ccccc32)N1S(=O)(=O)c1ccc([N+](=O)[O-])cc1", "rule met"),
    ("O=C1NC(=O)C2(c3ccccc3-c3ccccc32)N1S(=O)(=O)c1ccc(Br)cc1", "rule met"),
]

These data points were gathered from ChEMBL document CHEMBL3425483.
